- Tested on: MOLT-3 (acute lymphoblastic leukemia)
- assay_overview: XTT cytotoxicity assay, MOLT-3
- settings: Homo sapiens, MOLT-3, read-out: Cytotoxicity IC50, MOLT-3, MOLT-3 cell line, XTT assay
observation_type: pIC50
# reply with the number alone; pIC50 is -log10 of concentration in mol/L

Answered cases to consult:
{"molecule": "CC1=C(CC[C@@](C)(O)[C@@H]2CCC(=O)O2)C(C)(C)CCC1", "pIC50": 3.91}
{"molecule": "COC1OC(=O)C=C1C(O)CC=C(C=O)CCC=C(C)CCC1=C(C)CCCC1(C)C (centres unmarked) [Compound 3, seco-manoalide-25-methyl ether]", "pIC50": 4.80}
{"molecule": "CC1=C(CC/C(C)=C/CC/C(=C\\CC2OC(=O)C=C2CO)CO)C(C)(C)CCC1 (centres unmarked) [Compound 12, (6E)-neomanoalide]", "pIC50": 4.42}
{"molecule": "CC1=C(CC/C(C)=C/CC/C(=C/C[C@@H](O)C2=CC(=O)OC2)CO)C(C)(C)CCC1 [Compound 10, luffariolide B]", "pIC50": 4.45}
{"molecule": "COC1OC(C2=CC(=O)OC2O)CC=C1CCC=C(C)CCC1=C(C)CCCC1(C)C (centres unmarked) [Compound 8, 24-O-methylmanoalide]", "pIC50": 5.75}

Please give the documented pIC50 of CC(=O)OC/C(=C\CC1OC(=O)C=C1CO)CC/C=C(\C)CCC1=C(C)CCCC1(C)C (centres unmarked) [Compound 7, (6Z)-neomanoalide-24-acetate]
4.40

Please give the documented pIC50 of CC1(C)CCC[C@@]2(C)C1CC[C@]1(C)C2C[C@@H](O)[C@]2(C)C3C(=CCC12)C(=O)OC3O (stereo partly drawn) [Compound 20, 12-O-deacetyl-12-epi-scalarin]
5.12

Please give the documented pIC50 of CC(=O)O[C@@H]1CC2[C@@]3(C)CCCC(C)(C)C3CC[C@@]2(C)C2CC=C3C(=O)OC(O)C3[C@]21C (stereo partly drawn) [Compound 19, 12-epi-scalarin]
4.86

Please give the documented pIC50 of COC(=O)c1cc2c(cn1)[nH]c1ccc(O)cc12
4.11

Please give the documented pIC50 of CC1=C(CC/C(C)=C/CC/C(=C/CC2OC(=O)C=C2CO)CO)C(C)(C)CCC1 (centres unmarked) [Compound 13, (6Z)-neomanoalide]
4.47

Please give the documented pIC50 of COc1cc([C@@H]2c3cc4c(cc3[C@@H](O[C@@H]3O[C@@H]5CO[C@@H](C)O[C@H]5[C@H](O)[C@H]3O)[C@H]3COC(=O)[C@H]23)OCO4)cc(OC)c1O [Etoposide, reference compound]
7.40

###

- System: HuCCA-1 (human chlolangiocarcinoma)
- assay_overview: MTT cytotoxicity assay, HuCCA-1
- settings: Homo sapiens, HuCC-A1, read-out: Cytotoxicity IC50, HuCCA-1, HuCCA-1 cell line, MTT assay
Items are presented alongside their recorded IC50.

Answered cases to consult:
{"compound": "COC(=O)c1cc2c(cn1)[nH]c1ccc(O)cc12 [Compound 23, variabine B]", "observation_type": "IC50", "result": "> 50 µg/mL"}
{"compound": "COc1cccc2c1C(=O)c1c(O)c3c(c(O)c1C2=O)C[C@@](O)(C(=O)CO)C[C@@H]3O[C@H]1C[C@H](N)[C@H](O)[C@H](C)O1 [Doxorubicin, reference compound]", "observation_type": "IC50", "result": "0.4 µM"}
{"compound": "CC1=C(CC/C(C)=C/CC/C(=C/C[C@@H](O)C2=CC(=O)OC2)CO)C(C)(C)CCC1 [Compound 10, luffariolide B]", "observation_type": "IC50", "result": "> 50 µg/mL"}
{"compound": "CC1(C)CCC[C@@]2(C)C1CC[C@]1(C)C2C[C@@H](O)[C@]2(C)C3C(=CCC12)C(=O)OC3O (stereo partly drawn) [Compound 20, 12-O-deacetyl-12-epi-scalarin]", "observation_type": "IC50", "result": "87.1 µM"}
{"compound": "CC1=C(CC[C@@](C)(O)[C@@H]2CCC(=O)O2)C(C)(C)CCC1 [Compound 16, cavernosine]", "observation_type": "IC50", "result": "> 50 µg/mL"}

// next entry
Please give the documented IC50 of CC(=O)OC/C(=C\CC1OC(=O)C=C1CO)CC/C=C(\C)CCC1=C(C)CCCC1(C)C (stereo not drawn) [Compound 7, (6Z)-neomanoalide-24-acetate]
> 50 µg/mL
